Biological target: SOS1/KRAS-G12D (Homo sapiens (Human), UniProt Q07889)
Sequence (Q07889 564-1049 limits assumed): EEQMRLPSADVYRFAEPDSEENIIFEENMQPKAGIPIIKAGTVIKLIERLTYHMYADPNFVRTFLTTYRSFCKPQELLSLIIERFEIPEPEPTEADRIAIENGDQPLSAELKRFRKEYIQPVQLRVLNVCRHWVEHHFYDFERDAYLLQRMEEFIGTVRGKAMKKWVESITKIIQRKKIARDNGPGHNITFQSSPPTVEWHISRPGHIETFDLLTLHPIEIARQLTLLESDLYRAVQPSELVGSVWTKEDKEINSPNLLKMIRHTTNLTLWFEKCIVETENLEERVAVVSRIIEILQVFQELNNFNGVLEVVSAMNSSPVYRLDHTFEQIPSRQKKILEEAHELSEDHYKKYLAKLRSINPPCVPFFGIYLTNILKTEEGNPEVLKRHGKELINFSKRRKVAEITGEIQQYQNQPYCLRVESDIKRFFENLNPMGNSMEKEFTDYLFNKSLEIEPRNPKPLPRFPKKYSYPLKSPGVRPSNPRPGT
Test: SOS1/KRAS-G12D binding inhibition assay (AlphaScreen)
Conditions: GST-SOS1 and 6*His KRAS-G12D, read-out: KrasG12D/SOS1 binding IC50
Readout name: IC50

Worked cases, answers included:
Compound: COC1(c2ccc3nccc(N[C@H](C)c4cccc(C(F)(F)F)c4C)c3c2)CCN(C(=O)CC#N)CC1
System tested: SOS1/KRAS-G12D (Homo sapiens (Human), UniProt Q07889)
IC50: 10 to 100 nM
//
Compound: CO[C@]1(c2ccc3nccc(N[C@H](C)c4cccc(C#N)c4C)c3c2)CCN(C(C)=O)C1
System tested: SOS1/KRAS-G12D (Homo sapiens (Human), UniProt Q07889)
IC50: 10 to 100 nM
//
Compound: Cc1c([C@@H](C)Nc2ccnc3ccc(N4CCN(C(=O)C5CCCO5)CC4)cc23)cccc1C(F)(F)F (stereo partly drawn)
System tested: SOS1/KRAS-G12D (Homo sapiens (Human), UniProt Q07889)
IC50: 10 to 100 nM

Q: Provide SOS1/KRAS-G12D (Homo sapiens (Human), UniProt Q07889) IC50 reading for "CC(=O)N1CCCN(c2ccc3nccc(N[C@H](C)c4cccc(C(F)(F)F)c4C)c3c2)CC1" .
Ans: > 100 nM

Q: Provide SOS1/KRAS-G12D (Homo sapiens (Human), UniProt Q07889) IC50 reading for "C[C@@H](Nc1ccnc2ccc(N3CCN(C(=O)C4COC4)CC3)cc12)c1cccc(C(F)F)c1F" .
Ans: ≤ 10 nM
